- SYSTEM UNDER TEST: human NK-3 receptor (Homo sapiens (Human), UniProt P29371)
- Sequence (P29371 whole entry): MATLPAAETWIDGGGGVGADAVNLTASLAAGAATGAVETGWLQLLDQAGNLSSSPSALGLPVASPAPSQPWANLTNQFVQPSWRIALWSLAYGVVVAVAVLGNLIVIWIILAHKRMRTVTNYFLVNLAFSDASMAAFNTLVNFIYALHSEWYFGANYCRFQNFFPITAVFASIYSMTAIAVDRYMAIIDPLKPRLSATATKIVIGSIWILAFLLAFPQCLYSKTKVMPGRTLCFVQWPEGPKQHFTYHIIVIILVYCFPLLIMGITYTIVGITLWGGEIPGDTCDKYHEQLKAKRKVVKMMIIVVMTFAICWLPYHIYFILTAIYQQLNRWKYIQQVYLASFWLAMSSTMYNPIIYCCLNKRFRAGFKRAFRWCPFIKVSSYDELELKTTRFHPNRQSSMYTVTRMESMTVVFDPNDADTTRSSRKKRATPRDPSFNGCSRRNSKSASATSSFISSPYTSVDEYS
- EXPERIMENT: 3H-SB222200 binding competition assay with human NK-3 receptor
- PROTOCOL CONDITIONS: Table 6; membranes of CHO cells expressing human NK3 receptor, 5 nM 3H-SB222200; read-out: Ki
ASSAY METRIC: Ki (nM)
Provide only the numeric value, understood in nM.

Q: Kindly indicate its recorded Ki. Item: Cc1cccc(-c2nnc3n2CCN(C(=O)c2ccc(-c4cccs4)cc2)[C@@H]3C)n1 [Compound 30]
Result: 10

Q: Note Ki for the molecule shown: CC(C)c1nc(-c2nnc3n2CCN(C(=O)c2ccc(-c4cccs4)cc2)[C@@H]3C)co1 [Compound 13]
Result: 3

Q: Let me know recorded Ki for Cc1nc(-c2nnc3n2CCN(C(=O)c2ccc(-c4cccs4)cc2)[C@@H]3C)c(C)s1 [Compound 16] , thanks.
Result: 32

* * *

- SYSTEM UNDER TEST: human NK2 receptor (Homo sapiens (Human), UniProt P21452)
- Sequence (P21452 whole entry): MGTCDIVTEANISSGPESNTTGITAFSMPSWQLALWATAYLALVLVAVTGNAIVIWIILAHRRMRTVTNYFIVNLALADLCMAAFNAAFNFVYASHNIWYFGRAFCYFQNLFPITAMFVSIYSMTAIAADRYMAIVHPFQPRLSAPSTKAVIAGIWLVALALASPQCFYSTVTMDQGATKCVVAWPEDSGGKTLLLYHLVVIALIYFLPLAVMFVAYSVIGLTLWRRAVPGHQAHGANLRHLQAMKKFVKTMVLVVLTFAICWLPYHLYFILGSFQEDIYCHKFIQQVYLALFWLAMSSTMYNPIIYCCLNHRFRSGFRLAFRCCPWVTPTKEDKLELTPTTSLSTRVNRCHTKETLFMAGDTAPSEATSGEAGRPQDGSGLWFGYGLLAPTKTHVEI
- EXPERIMENT: Human NK2 [125I]-Neurokinin A binding assay (selectivity)
- PROTOCOL CONDITIONS: read-out: NK2 Ki; CHO membranes, 0.1 nM [125I]-Neurokinin A
ASSAY METRIC: Ki

Q: Report Ki for Cc1nc(-c2nnc3n2CCN(C(=O)c2ccc(-c4cccs4)cc2)C3)cs1 [Compound 3]
Result: > 10 µM

Q: Return Ki (reported value) for this compound: Cc1nc(-c2nnc3n2CCN(C(=O)c2ccc(-c4cccs4)cc2)[C@@H]3C)co1 [Compound 11]
Result: > 10 µM

Q: Return value of Ki for input C[C@@H]1c2nnc(-c3cccc(O)n3)n2CCN1C(=O)c1ccc(-c2cccs2)cc1 [Compound 31] , no commentary.
Result: > 10 µM

* * *

- SYSTEM UNDER TEST: human NK1 receptor (Homo sapiens (Human))
- Sequence (P25103 whole entry): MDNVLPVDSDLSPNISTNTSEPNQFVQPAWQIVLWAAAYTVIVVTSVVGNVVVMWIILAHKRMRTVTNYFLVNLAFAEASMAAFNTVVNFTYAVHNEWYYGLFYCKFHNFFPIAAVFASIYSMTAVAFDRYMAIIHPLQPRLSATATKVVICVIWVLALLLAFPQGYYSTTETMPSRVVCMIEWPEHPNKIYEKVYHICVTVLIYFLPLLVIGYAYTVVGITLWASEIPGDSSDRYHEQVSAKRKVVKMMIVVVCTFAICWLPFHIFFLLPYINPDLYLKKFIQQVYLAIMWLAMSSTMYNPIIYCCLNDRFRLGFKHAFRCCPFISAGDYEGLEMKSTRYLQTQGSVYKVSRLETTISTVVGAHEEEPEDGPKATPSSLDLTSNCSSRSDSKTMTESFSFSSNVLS
- EXPERIMENT: Human NK1 [3H] substance P binding assay (selectivity)
- PROTOCOL CONDITIONS: read-out: NK1 Ki; CHO membranes, 2 nM [3H] substance P
pKi: −log10 of the molar value.
ASSAY METRIC: pKi

Q: Please report the measured pKi for Cc1nc(-c2nnc3n2CCN(C(=O)c2ccc(-c4cccs4)cc2)[C@@H]3C)co1
Result: < 5.00

Q: Entry C[C@@H]1c2nnc(-c3cccc(O)n3)n2CCN1C(=O)c1ccc(-c2cccs2)cc1 needs its pKi filled in; supply it.
Result: < 5.00

Q: Return value of pKi for input Cc1nc(-c2nnc3n2CCN(C(=O)c2ccc(-c4cccs4)cc2)C3)cs1 , no commentary.
Result: < 5.00

* * *

- SYSTEM UNDER TEST: human NK-3 receptor (Homo sapiens (Human))
- EXPERIMENT: Aequorin functional assay with human NK-3 receptor (antagonist testing vs NKA)
- PROTOCOL CONDITIONS: inhibition of NKA (3 nM, EC80) response, CHO cells expressing human NK3 receptor and apoaequorin
What log10(IC50) was measured for each of the following?
Note the log scale: values are log10 of IC50 expressed in nM.

Q: Please report the measured log10(IC50) for Cc1csc(-c2nnc3n2CCN(C(=O)c2ccc(-c4cccs4)cc2)[C@@H]3C)n1
Result: 0.90

Q: Give recorded log10(IC50). C=Cc1nc(-c2nnc3n2CCN(C(=O)c2ccc(-c4ccccc4)cc2)[C@@H]3C)cs1
Result: 0.85

Q: Return the recorded log10(IC50) value; entry: CCc1nc(-c2nnc3n2CCN(C(=O)c2ccc(-c4ccccc4)cc2)[C@@H]3C)cs1
Result: 1.00

Q: Specify measured log10(IC50) for CC(C)c1nc(-c2nnc3n2CCN(C(=O)c2ccc(-c4cccs4)cc2)[C@@H]3C)co1 .
Result: 0.30

Q: In one line, give reported log10(IC50) of the entry CC(C)c1nsc(-c2nnc3n2CCN(C(=O)c2ccc(-c4cccs4)cc2)[C@@H]3C)n1 .
Result: 0.48

Q: Name the recorded log10(IC50) of the item C[C@@H]1c2nnc(-c3coc(C4CC4)n3)n2CCN1C(=O)c1ccc(-c2cccs2)cc1 in your answer.
Result: 0.95

Q: Supply log10(IC50) value. Item: CC(C)c1nc(-c2nnc3n2CCN(C(=O)c2ccc(-c4cccs4)cc2)C3)cs1
Result: 1.00

Q: Answer with the recorded log10(IC50) of CC(C)c1nc(-c2nnc3n2CCN(C(=O)c2ccc(-c4cccs4)cc2)C3)co1 only.
Result: 1.67

Q: Let me know recorded log10(IC50) for Cc1csc(-c2nnc3n2CCN(C(=O)c2ccc(-c4ccccc4)cc2)C3)n1 , thanks.
Result: 1.52

Q: Return log10(IC50) (reported value) for this compound: Cc1csc(-c2nnc3n2CCN(C(=O)c2ccc(-c4ccccc4)cc2)[C@@H]3C)n1
Result: 1.04

Q: Quick one: give measured log10(IC50) for Cc1nc(-c2nnc3n2CCN(C(=O)c2ccc(-c4cccs4)cc2)[C@@H]3C)c(C)s1
Result: 1.48

Q: Return log10(IC50) (reported value) for this compound: Cc1cccc(-c2nnc3n2CCN(C(=O)c2ccc(-c4cccs4)cc2)[C@@H]3C)n1
Result: 1.04

Q: Give the value of log10(IC50) reported for the following: C=Cc1nc(-c2nnc3n2CCN(C(=O)c2ccc(-c4cccs4)cc2)[C@@H]3C)cs1
Result: 0.48

Q: Indicate its recorded log10(IC50); the compound in question is Cc1coc(-c2nnc3n2CCN(C(=O)c2ccc(-c4ccccc4)cc2)[C@@H]3C)n1
Result: 1.71

Q: Input C=Cc1nc(-c2nnc3n2CCN(C(=O)c2ccc(-c4ccccc4)cc2)C3)cs1 , output reported log10(IC50).
Result: 1.30

Q: Return log10(IC50) for the following compound: Cc1coc(-c2nnc3n2CCN(C(=O)c2ccc(-c4cccs4)cc2)[C@@H]3C)n1
Result: 1.08

Q: Given C=Cc1nc(-c2nnc3n2CCN(C(=O)c2ccc(-c4cccs4)cc2)C3)cs1 , respond with its log10(IC50).
Result: 1.26

Q: For the compound C[C@@H]1c2nnc(-c3csc(N(C)C)n3)n2CCN1C(=O)c1ccc(-c2cccs2)cc1 , give its measured log10(IC50) value.
Result: 0.85

Q: Indicate its recorded log10(IC50); the compound in question is CCc1nc(-c2nnc3n2CCN(C(=O)c2ccc(-c4cccs4)cc2)[C@@H]3C)cs1
Result: 0.48

Q: Give the reported log10(IC50) for this compound. Cc1nc(-c2nnc3n2CCN(C(=O)c2ccc(-c4cccs4)cc2)[C@@H]3C)co1
Result: 1.53

Q: Recall and state the measured log10(IC50) for O=C(c1ccc(-c2cccs2)cc1)N1CCn2c(nnc2-c2csc(C(F)(F)F)n2)C1 .
Result: 1.70

Q: Please give the documented log10(IC50) of Cc1cccc(-c2nnc3n2CCN(C(=O)c2ccc(-c4ccccc4)cc2)[C@@H]3C)n1
Result: 1.26
